- ASSAY NOTES: M. tuberculosis H37Rv growth inhibitors, H37Rv strain (AID 1626);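 also: bacteria incubated seven days before Alamar blue readout; 0% = bacteria only wells and 100% = bacteria with antibiotic wells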
- EXPERIMENTAL PARAMETERS: hits give high values, concentration not given here
Hit rate of the full screen: of about 220,000 compounds, about 2,000 (0.91%) were called active. Inconclusive results (about 2%) are left out. These entries were drawn from the full list. Entries with a potency or affinity are not part of this list.
READOUT: inhibition

(Q) Which value of inhibition has been reported for O=C(NCc1ccco1)C1CCN(Cc2ccc(F)cc2)CC1 in the records?
(A) 1.23% (inactive)

For each of the compounds below, note its inhibition.
1. O=C(Nc1nc2ccccc2n1CCN1CCCCC1)C1CCCCC1
2. CCc1nnc(NC(=O)CSc2nc3cc4c(cc3cc2CC)OCCO4)s1

(A)
1. 4.2% (inactive)
2. 7.01% (inactive)
